Please go through the items and note down their LD50.
- assay-info: Toxicity (LD 50) in mice by intravenous and oral application
- Assay type: in vivo
- measurement-setup: mouse, in vivo; mice CD 1, oral; cumulative quantal method; read-out: Intense toxicities to mice (LD 50), oral
Counter-ions that a name gives are not always drawn.

Give me LD50 for each of these compounds, listed below.
1. CCCCc1c(OC2CCN(C)CC2)nc(N2CCOCC2)nc1OC1CCN(C)CC1 [Example 17, dihydrochloride]
2. CCc1c(OC2CCN(C)CC2)nc(N2CCOCC2)nc1OC1CCN(C)CC1 [Example 16, dihydrobromide]
3. CN1CCC(Oc2nc(N3CCOCC3)nc(OC3CCN(C)CC3)c2Cc2ccccc2)CC1
4. CN1CCC(Oc2nc(N3CCOCC3)nc(OC3CCN(C)CC3)c2-c2ccc(Cl)cc2)CC1
5. CN1CCC(Oc2nc(N3CCOCC3)nc(OC3CCN(C)CC3)c2Oc2ccc(Cl)cc2)CC1
6. CCOc1c(OC2CCN(C)CC2)nc(N2CCOCC2)nc1OC1CCN(C)CC1 [Example 19, dihydrochloride]

Key:
~225 mg/kg
~525 mg/kg
~800 mg/kg
~600 mg/kg
> 900 mg/kg
~600 mg/kg

====

- System: mice CD 1 (Charles RIVER)
- assay-info: Toxicity (LD 50) in mice by intravenous and oral application
- Assay type: in vivo
- measurement-setup: mice CD 1, oral; cumulative quantal method

>  <test-smiles>
Cc1c(OC2CCN(C)CC2)nc(N2CCOCC2)nc1OC1CCN(C)CC1

>  <target-entity>
mice CD 1 (Charles RIVER)

>  <Intense toxicities to mice (LD 50), oral>
atoxic at 900

$$$$
>  <test-smiles>
CN1CCC(Oc2cc(OC3CCN(C)CC3)nc(N3CCOCC3)n2)CC1

>  <target-entity>
mice CD 1 (Charles RIVER)

>  <Intense toxicities to mice (LD 50), oral>
atoxic at 900

$$$$
>  <test-smiles>
COc1c(OC2CCN(C)CC2)nc(N2CCOCC2)nc1OC1CCN(C)CC1

>  <target-entity>
mice CD 1 (Charles RIVER)

>  <Intense toxicities to mice (LD 50), oral>
atoxic at 900

$$$$
>  <test-smiles>
CN1CCC(Oc2nc(N3CCOCC3)nc(OC3CCN(C)CC3)c2Cl)CC1

>  <target-entity>
mice CD 1 (Charles RIVER)

>  <Intense toxicities to mice (LD 50), oral>
atoxic at 900

$$$$

====

- assay-info: Toxicity (LD 50) in mice by intravenous and oral application
- Format: in vivo
- measurement-setup: mouse, in vivo; mice CD 1, intravenous; cumulative quantal method; read-out: Intense toxicities to mice (LD 50), intravenous
Where a name gives a salt, the structure may show the parent alone.
assay-readout: LD50
Hey, just the number and the unit after it is fine.

Study these solved cases before continuing.
>  <compound>
Cc1c(OC2CCN(C)CC2)nc(N2CCOCC2)nc1OC1CCN(C)CC1

>  <LD50>
81 mg/kg

$$$$
>  <compound>
CCc1c(OC2CCN(C)CC2)nc(N2CCOCC2)nc1OC1CCN(C)CC1 [Example 16, dihydrobromide]

>  <LD50>
54 mg/kg

$$$$
>  <compound>
COc1c(OC2CCN(C)CC2)nc(N2CCOCC2)nc1OC1CCN(C)CC1

>  <LD50>
67 mg/kg

$$$$
>  <compound>
CN1CCC(Oc2nc(N3CCOCC3)nc(OC3CCN(C)CC3)c2Cc2ccccc2)CC1

>  <LD50>
40 mg/kg

$$$$
>  <compound>
CN1CCC(Oc2nc(N3CCOCC3)nc(OC3CCN(C)CC3)c2-c2ccc(Cl)cc2)CC1

>  <LD50>
20 mg/kg

$$$$

Next item in the queue.
Exercise: Requested read-out: LD50. Entry: CCOc1c(OC2CCN(C)CC2)nc(N2CCOCC2)nc1OC1CCN(C)CC1 [Example 19, dihydrochloride]
Key: 70 mg/kg
